src = ChEMBL document CHEMBL4414679

target: Epidermal growth factor receptor (Homo sapiens); assay: Inhibition of N-terminal GST-tagged human EGFR cytoplasmic domain (669-1210 AA) expressed in baculovirus at 10 uM using FAM-labelled peptide as substrate pre-incubated for 10 mins followed by substrate addition by mobility shift assay relative to control
Parameter threshold = 40%. Response is yes (1) when inhibition meets or exceeds it, else no (0).

| SMILES STR | LABEL CLASS |
| --- | --- |
| COc1cc(NC(=O)Nc2cc(Nc3cc(I)ccc3OC)ncn2)cc(OC)c1 | yes (1) |
| CC(C)(C)c1cccc(Nc2cc(NC(=O)Nc3c(Cl)cccc3Cl)ncn2)c1 | yes (1) |
| Cc1cc(F)cc(Nc2cc(NC(=O)Nc3c(Cl)cccc3Cl)ncn2)c1 | yes (1) |
| COc1cc(NC(=O)Nc2cc(Nc3cc(C)cc(F)c3)ncn2)cc(OC)c1 | no (0) |
| COc1cc(NC(=O)Nc2cc(Nc3ccc(OC)c(C)c3)ncn2)cc(OC)c1 | yes (1) |

Please look at the following compound next.
Enquiry: Evaluate COc1cc(NC(=O)Nc2cc(Nc3cc(OC)ccc3OC)ncn2)cc(OC)c1 : inhibition at minimum 40%?
Return: yes (1)

----------
target: Fibroblast growth factor receptor 1 (Homo sapiens, UniProt P11362); assay: Inhibition of N-terminal GST-tagged human FGFR1 cytoplasmic domain (398-822 AA) expressed in baculovirus at 10 uM using FAM-labelled peptide as substrate pre-incubated for 10 mins followed by substrate addition by mobility shift assay relative to control
Sequence (P11362 22-822 limits assumed): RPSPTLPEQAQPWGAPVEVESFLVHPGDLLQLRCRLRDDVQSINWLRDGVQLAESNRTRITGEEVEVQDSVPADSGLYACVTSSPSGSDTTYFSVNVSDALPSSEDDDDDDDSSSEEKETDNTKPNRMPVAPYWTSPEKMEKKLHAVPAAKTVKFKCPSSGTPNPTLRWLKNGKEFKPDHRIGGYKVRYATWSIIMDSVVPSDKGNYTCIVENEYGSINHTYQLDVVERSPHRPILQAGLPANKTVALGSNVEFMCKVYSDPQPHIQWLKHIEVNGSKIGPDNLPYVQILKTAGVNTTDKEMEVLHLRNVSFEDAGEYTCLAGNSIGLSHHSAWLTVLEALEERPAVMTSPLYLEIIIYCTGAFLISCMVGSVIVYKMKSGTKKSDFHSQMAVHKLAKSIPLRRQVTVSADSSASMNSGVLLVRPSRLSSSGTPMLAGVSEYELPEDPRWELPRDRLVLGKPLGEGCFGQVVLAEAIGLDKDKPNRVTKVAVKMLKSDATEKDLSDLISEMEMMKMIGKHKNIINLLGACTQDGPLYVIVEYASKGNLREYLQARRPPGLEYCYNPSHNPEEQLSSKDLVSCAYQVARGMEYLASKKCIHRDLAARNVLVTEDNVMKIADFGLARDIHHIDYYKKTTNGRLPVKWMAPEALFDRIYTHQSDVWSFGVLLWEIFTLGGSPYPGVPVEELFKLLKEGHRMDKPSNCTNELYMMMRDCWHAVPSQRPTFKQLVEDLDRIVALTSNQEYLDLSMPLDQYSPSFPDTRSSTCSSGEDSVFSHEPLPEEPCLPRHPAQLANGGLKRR
OUTCOME MEASURE: inhibition

The cases that follow already have their inhibition on record.
| SMILES STR | inhibition |
| --- | --- |
| COc1cc(NC(=O)Nc2cc(Nc3cc(I)ccc3OC)ncn2)cc(OC)c1 | -2.1% |
| COc1cc(NC(=O)Nc2cc(Nc3ccc(C)c(F)c3)ncn2)cc(OC)c1 | 0.1% |

Let us examine a further case.
# molecule COc1cc(NC(=O)Nc2cc(Nc3ccc(C)c(C)c3)ncn2)cc(OC)c1 ; its inhibition = 21.3%

----------
tested on: PC-9; assay: Antiproliferative activity against human PC9 cells assessed as inhibition of cell growth at 10 uM incubated for 48 hrs by MTT assay relative to control; type: functional; settings: PC-9, 48 h
OUTCOME MEASURE: inhibition at 10 µM (%)
Could you give me the number in %? Just the number is fine.

The cases that follow already have their inhibition at 10 µM on record.
| SMILES STR | TEST SYSTEM | inhibition at 10 µM / % |
| --- | --- | --- |
| COc1cc(NC(=O)Nc2cc(Nc3ccc(C)c(C)c3)ncn2)cc(OC)c1 | PC-9 | 66 |
| Cc1ccc(Nc2cc(NC(=O)Nc3c(Cl)cccc3Cl)ncn2)cc1C | PC-9 | 92.1 |
| COc1cc(NC(=O)Nc2cc(Nc3ccc(OC)c(I)c3)ncn2)cc(OC)c1 | PC-9 | 47 |
| COc1ccc(F)cc1Nc1cc(NC(=O)Nc2c(Cl)cccc2Cl)ncn1 | PC-9 | 85.5 |
| CC(C)(C)c1cccc(Nc2cc(NC(=O)Nc3c(Cl)cccc3Cl)ncn2)c1 | PC-9 | 87 |

Let us examine a further case.
# compound COc1cc(NC(=O)Nc2cc(Nc3cc(Br)ccc3OC)ncn2)cc(OC)c1 ; its inhibition at 10 µM = 82.5

----------
test system: PC-9; experiment: Antiproliferative activity against human PC9 cells assessed as inhibition of cell growth at 10 uM incubated for 48 hrs by MTT assay relative to control; assay type: functional; details: PC-9, 48 h
inhibition at 10 µM reference
Could you give me the number in %? Just the number is fine.

The cases that follow already have their inhibition at 10 µM on record.
| SMILES STR | TEST SYSTEM | OUTCOME MEASURE | OBSERVED VALUE |
| --- | --- | --- | --- |
| COc1ccc(Br)cc1Nc1cc(NC(=O)Nc2c(Cl)cccc2Cl)ncn1 | PC-9 | inhibition at 10 µM | 69 |
| CCc1ccc(Nc2cc(NC(=O)Nc3c(Cl)cccc3Cl)ncn2)cc1 | PC-9 | inhibition at 10 µM | 70 |
| COc1cc(NC(=O)Nc2cc(Nc3ccc(OC)c(C)c3)ncn2)cc(OC)c1 | PC-9 | inhibition at 10 µM | 62 |
| COc1cc(NC(=O)Nc2cc(Nc3cc(F)ccc3OC)ncn2)cc(OC)c1 | PC-9 | inhibition at 10 µM | 59.5 |
| CCN1CCN(c2ccc(Nc3cc(N(C)C(=O)Nc4c(Cl)c(OC)cc(OC)c4Cl)ncn3)cc2)CC1 | PC-9 | inhibition at 10 µM | 55.5 |
| COc1cc(NC(=O)Nc2cc(Nc3ccc(Br)cc3OC)ncn2)cc(OC)c1 | PC-9 | inhibition at 10 µM | 83 |

Let us examine a further case.
# molecule COc1cc(NC(=O)Nc2cc(Nc3cc(C)cc(F)c3)ncn2)cc(OC)c1 ; its inhibition at 10 µM = 64.5

----------
target: Epidermal growth factor receptor (Homo sapiens, UniProt P00533); experiment: Inhibition of N-terminal GST-tagged human EGFR (d746-750AA) expressed in baculovirus at 10 uM using FAM-labelled peptide as substrate pre-incubated for 10 mins followed by substrate addition by mobility shift assay relative to control
Sequence (P00533 whole entry, the tested form may be a part): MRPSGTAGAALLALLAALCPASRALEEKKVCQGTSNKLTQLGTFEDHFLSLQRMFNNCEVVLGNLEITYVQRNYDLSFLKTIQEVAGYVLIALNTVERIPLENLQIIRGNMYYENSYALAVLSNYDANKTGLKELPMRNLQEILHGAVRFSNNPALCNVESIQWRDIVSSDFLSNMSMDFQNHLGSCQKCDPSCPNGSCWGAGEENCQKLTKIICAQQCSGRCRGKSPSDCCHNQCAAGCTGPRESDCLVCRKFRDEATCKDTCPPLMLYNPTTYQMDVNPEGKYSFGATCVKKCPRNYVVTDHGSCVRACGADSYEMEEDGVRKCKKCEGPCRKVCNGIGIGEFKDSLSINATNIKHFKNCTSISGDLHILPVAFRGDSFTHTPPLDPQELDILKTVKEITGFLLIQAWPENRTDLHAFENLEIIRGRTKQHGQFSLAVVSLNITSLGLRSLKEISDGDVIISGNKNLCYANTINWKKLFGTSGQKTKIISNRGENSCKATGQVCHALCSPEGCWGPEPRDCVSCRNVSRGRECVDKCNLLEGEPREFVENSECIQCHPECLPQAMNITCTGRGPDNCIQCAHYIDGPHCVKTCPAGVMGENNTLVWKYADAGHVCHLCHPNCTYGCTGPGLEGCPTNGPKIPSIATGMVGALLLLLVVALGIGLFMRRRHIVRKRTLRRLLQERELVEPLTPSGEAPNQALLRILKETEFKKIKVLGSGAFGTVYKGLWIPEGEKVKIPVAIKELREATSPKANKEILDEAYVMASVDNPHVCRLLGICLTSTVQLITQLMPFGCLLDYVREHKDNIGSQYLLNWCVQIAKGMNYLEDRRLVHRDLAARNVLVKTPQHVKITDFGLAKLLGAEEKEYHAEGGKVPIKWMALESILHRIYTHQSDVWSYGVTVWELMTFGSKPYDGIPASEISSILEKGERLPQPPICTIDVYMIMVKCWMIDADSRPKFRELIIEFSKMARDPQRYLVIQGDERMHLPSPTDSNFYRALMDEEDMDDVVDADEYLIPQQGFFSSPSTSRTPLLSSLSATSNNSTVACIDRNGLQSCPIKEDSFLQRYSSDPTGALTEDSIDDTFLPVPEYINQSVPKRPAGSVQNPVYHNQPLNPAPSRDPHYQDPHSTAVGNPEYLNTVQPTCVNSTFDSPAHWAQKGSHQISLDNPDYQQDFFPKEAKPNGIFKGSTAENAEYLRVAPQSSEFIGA
Parameter threshold = 60%. Response is T when inhibition meets or exceeds it, else F.

| SMILES STR | TEST SYSTEM | LABEL CLASS |
| --- | --- | --- |
| COc1cc(NC(=O)Nc2cc(Nc3ccc(Br)cc3OC)ncn2)cc(OC)c1 | Epidermal growth factor receptor (Homo sapiens, UniProt P00533) | F |
| COc1cc(NC(=O)Nc2cc(Nc3cc(OC)cc(OC)c3)ncn2)cc(OC)c1 | Epidermal growth factor receptor (Homo sapiens, UniProt P00533) | F |
| CCc1ccc(Nc2cc(NC(=O)Nc3c(Cl)cccc3Cl)ncn2)cc1 | Epidermal growth factor receptor (Homo sapiens, UniProt P00533) | T |
| COc1cc(NC(=O)Nc2cc(Nc3cc(C(F)(F)F)ccc3OC)ncn2)cc(OC)c1 | Epidermal growth factor receptor (Homo sapiens, UniProt P00533) | F |
| COc1cc(NC(=O)Nc2cc(Nc3cc(OC)ccc3OC)ncn2)cc(OC)c1 | Epidermal growth factor receptor (Homo sapiens, UniProt P00533) | T |

Please look at the following molecule next.
Enquiry: Evaluate O=C(Nc1cc(Nc2ccc(F)c(Cl)c2)ncn1)Nc1c(Cl)cccc1Cl : inhibition at minimum 60%?
Return: T

----------
tested on: NCI-H1581; assay: Antiproliferative activity against human NCI-H1581 cells assessed as inhibition of cell growth at 10 uM incubated for 48 hrs by MTT assay relative to control; format: functional; conditions: NCI-H1581, 48 h
Parameter threshold = 40%. Response is yes when inhibition at 10 µM meets or exceeds it, else no.

| SMILES STR | LABEL CLASS |
| --- | --- |
| Cc1ccc(Nc2cc(NC(=O)Nc3c(Cl)cccc3Cl)ncn2)cc1F | yes |
| O=C(Nc1cc(Nc2ccc(F)c(Cl)c2)ncn1)Nc1c(Cl)cccc1Cl | yes |
| COc1ccc(C(F)(F)F)cc1Nc1cc(NC(=O)Nc2c(Cl)cccc2Cl)ncn1 | yes |

Please look at the following molecule next.
Enquiry: Evaluate COc1cc(NC(=O)Nc2cc(Nc3cccc(C(C)(C)C)c3)ncn2)cc(OC)c1 : inhibition at 10 µM at minimum 40%?
Return: no

----------
system: NCI-H1581; test: Antiproliferative activity against human NCI-H1581 cells assessed as inhibition of cell growth at 10 uM incubated for 48 hrs by MTT assay relative to control; format: functional; settings: NCI-H1581, 48 h
OUTCOME MEASURE: inhibition at 10 µM (%)
Could you give me the number in %? Just the number is fine.

| SMILES STR | TEST SYSTEM | inhibition at 10 µM (%) |
| --- | --- | --- |
| COc1cc(NC(=O)Nc2cc(Nc3cc(OC)cc(OC)c3)ncn2)cc(OC)c1 | NCI-H1581 | 40.7 |
| COc1cc(NC(=O)Nc2cc(Nc3cc(C(F)(F)F)ccc3OC)ncn2)cc(OC)c1 | NCI-H1581 | 67 |

# compound CC(C)(C)c1ccc(Nc2cc(NC(=O)Nc3c(Cl)cccc3Cl)ncn2)cc1 ; its inhibition at 10 µM = 71.3

# compound COc1cc(NC(=O)Nc2cc(Nc3cc(OC)ccc3OC)ncn2)cc(OC)c1 ; its inhibition at 10 µM = 40.7

# compound O=C(Nc1cccc(Nc2cc(Nc3cccc(C(F)(F)F)c3)ncn2)c1)C1CC1 ; its inhibition at 10 µM = 26

# compound COc1cc(NC(=O)Nc2cc(Nc3ccc(C(C)(C)C)cc3)ncn2)cc(OC)c1 ; its inhibition at 10 µM = 38.7

# compound CCc1cccc(Nc2cc(NC(=O)Nc3cc(OC)cc(OC)c3)ncn2)c1 ; its inhibition at 10 µM = 27.7
